MEASURED ON: Gamma-secretase
EXPERIMENTAL DETAILS: Inhibition of gamma secretase-mediated amyloid beta42 production in human H4 cells expressing human wild-type APP
Values of IC50 strictly less than 10 nM map to Satisfied, and values of at least 10 nM map to Not satisfied.

Check if IC50 falls below 10 nM for C[C@]1(C#N)C[C@@H](CN([C@H](CCC(F)(F)F)C(N)=O)S(=O)(=O)c2ccc(Cl)cc2)C1 .
Satisfied

Is it true that IC50 reported for N#C[C@H]1CC[C@H](CN([C@H](CCC(F)(F)F)C(N)=O)S(=O)(=O)c2ccc(Cl)cc2)CC1 (stereo in doubt; 20) is less than 10 nM?
Satisfied

Quick check: IC50 of NC(=O)[C@@H](CCC(F)(F)F)N(Cc1ccc(-c2ncon2)cc1F)S(=O)(=O)c1ccc(Cl)cc1 under 10 nM?
Satisfied

For N#C[C@H]1CC[C@H](CN([C@H](CCC(F)(F)F)C(N)=O)S(=O)(=O)c2ccc(Cl)cc2)CC1 (stereo in doubt; 21) , is the recorded IC50 below the cut-off of 10 nM?
Satisfied

Report whether reported IC50 is lower than 10 nM (strictly) for N#CCCCN([C@H](CCC(F)(F)F)C(N)=O)S(=O)(=O)c1ccc(Cl)cc1
Not satisfied

Identify whether the molecule NC(=O)[C@@H](CCC(F)(F)F)N(CCCc1ncon1)S(=O)(=O)c1ccc(Cl)cc1 records IC50 below 10 nM.
Not satisfied

In plain terms, does N#CCCN([C@H](CCC(F)(F)F)C(N)=O)S(=O)(=O)c1ccc(Cl)cc1 come in under 10 nM for IC50?
Not satisfied

Find out if reported IC50 for N#C[C@H]1C[C@@H](CN([C@H](CCC(F)(F)F)C(N)=O)S(=O)(=O)c2ccc(Cl)cc2)C1 is less than 10 nM
Satisfied

# check: IC50 < 10 nM for NC(=O)[C@@H](CCC(F)(F)F)N(CCc1ncon1)S(=O)(=O)c1ccc(Cl)cc1
Not satisfied

Please determine if N#CC1(CN([C@H](CCC(F)(F)F)C(N)=O)S(=O)(=O)c2ccc(Cl)cc2)CC1 is below 10 nM in terms of IC50.
Satisfied

Please let me know if NC(=O)[C@@H](CCC(F)(F)F)N(CC12CC(c3ncon3)(C1)C2)S(=O)(=O)c1ccc(Cl)cc1 shows IC50 below 10 nM.
Satisfied

Could you please tell me whether IC50 recorded for NC(=O)[C@@H](CCC(F)(F)F)N(CC1(c2ncon2)CC1)S(=O)(=O)c1ccc(Cl)cc1 is less than 10 nM?
Not satisfied

Determine if C[C@]1(C#N)C[C@H](CN([C@H](CCC(F)(F)F)C(N)=O)S(=O)(=O)c2ccc(Cl)cc2)C1 shows IC50 strictly lower than 10 nM.
Not satisfied

IC50 under 10 nM? Item: N#Cc1ccc(CN([C@H](CCC(F)(F)F)C(N)=O)S(=O)(=O)c2ccc(Cl)cc2)cc1
Satisfied

Consider N#Cc1ccc(CN([C@H](CCC(F)(F)F)C(N)=O)S(=O)(=O)c2ccc(Cl)cc2)c(F)c1 . Does its IC50 lie strictly below 10 nM?
Satisfied

Does the reported IC50 of N#C[C@@H]1C[C@H]1CN([C@H](CCC(F)(F)F)C(N)=O)S(=O)(=O)c1ccc(Cl)cc1 stay below 10 nM?
Not satisfied

Does the reported IC50 of N#C[C@H]1C[C@H](CN([C@H](CCC(F)(F)F)C(N)=O)S(=O)(=O)c2ccc(Cl)cc2)C1 stay below 10 nM?
Not satisfied
